target: SNAP-hSPR (sepiapterin reductase, SPR) (Homo sapiens, UniProt P35270)
Sequence (P35270 whole entry): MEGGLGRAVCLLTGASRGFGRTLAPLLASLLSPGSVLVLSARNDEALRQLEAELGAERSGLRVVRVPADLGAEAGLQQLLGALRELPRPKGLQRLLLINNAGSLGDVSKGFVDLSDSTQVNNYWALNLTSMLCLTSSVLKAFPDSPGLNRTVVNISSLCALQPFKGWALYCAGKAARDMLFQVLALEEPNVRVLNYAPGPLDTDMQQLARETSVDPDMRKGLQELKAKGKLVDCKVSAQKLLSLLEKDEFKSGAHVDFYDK
readout label: pIC50
The read-out pIC50 is expressed as -log10 of concentration in moles per litre.

A selection of reference data follows.
{"columns": ["compound", "pIC50"],
 "data": [
  ["O=C(c1ccn(-c2nc3c(c(=O)[nH]2)CCC3)c1)N1CCC(C(F)(F)F)CC1", 9.00],
  ["Cc1c(C(=O)N2CCN(S(=O)(=O)c3ccc(Cl)c(C(F)(F)F)c3)CC2)cnn1-c1nn2cccc2c(=O)[nH]1", 8.52],
  ["Cc1c(C(=O)N2CCN(c3ccccc3)CC2)cnn1-c1nn2cccc2c(=O)[nH]1", 9.00],
  ["Cc1c(C(=O)N2CCC(c3c[nH]c4ccccc34)CC2)cnn1-c1nc2ccsc2c(=O)[nH]1", 8.52],
  ["Cc1c(C(=O)N2CCC(C(C)(C)C#N)CC2)cnn1-c1nn2cccc2c(=O)[nH]1", 9.00]
]}

Lookup: For SNAP-hSPR (sepiapterin reductase, SPR) (Homo sapiens, UniProt P35270), provide pIC50 of Cc1c(C(=O)N2CC3CN(C)CC3C2)cnn1-c1nn2cccc2c(=O)[nH]1 (stereo not shown) please.
Found: 7.70

Lookup: Query for SNAP-hSPR (sepiapterin reductase, SPR) (Homo sapiens, UniProt P35270): what pIC50 does the record show for Cc1c(C(=O)N2CCC(c3noc(C4CC4)n3)CC2)cnn1-c1nn2cccc2c(=O)[nH]1 ?
Found: 9.00

###

target: SNAP-hSPR (sepiapterin reductase, SPR) (Homo sapiens, UniProt P35270)
readout label: IC50 (nM)
Unit nM implied. Number only.

{"columns": ["compound", "unit info", "IC50"],
 "data": [
  ["Cc1c(C(=O)N2CCN(c3ncc(-c4ccccc4Cl)o3)CC2)cnn1-c1nn2cccc2c(=O)[nH]1", "nM", 8]
]}

Lookup: // lookup IC50 for Cc1c(C(=O)N2CCC(S(=O)(=O)c3ccc(F)c(F)c3)CC2)cnn1-c1nc2ccsc2c(=O)[nH]1
Found: 3

###

Hi! I'm sharing some IC50 results obtained with UniProtKB P35270.

Solved entries (count: 3):
{"columns": ["chemical structure", "endpoint value"],
 "data": [
  ["Cc1c(C(=O)N2CCN(S(=O)(=O)c3ccccc3C(F)(F)F)CC2)cnn1-c1nn2cccc2c(=O)[nH]1", "1 nM"],
  ["Cc1c(C(=O)N2CCC(C(F)(F)F)CC2)ccn1-c1nc2c(c(=O)[nH]1)CCC2", "1 nM"],
  ["Cc1c(C(=O)N2CCC3(CCC3=O)CC2)cnn1-c1nn2cccc2c(=O)[nH]1", "1 nM"]
]}

Now take the following compound into account.
Lookup: What value of IC50 has been recorded for this entry: Cc1c(C(=O)N2CCC(c3nc4ccccc4s3)CC2)cnn1-c1nc2c(c(=O)[nH]1)CCC2
Found: 20 nM

###

Quick record: pIC50, SNAP-hSPR (sepiapterin reductase, SPR) (Homo sapiens).
// pIC50: -log10(molar conc.)

Worked examples follow.
{"columns": ["compound", "pIC50"],
 "data": [
  ["COCC(C1CCN(C(=O)c2cnn(-c3nn4cccc4c(=O)[nH]3)c2C)CC1)C(F)(F)F (centres unmarked)", 9.00],
  ["Cc1c(C(=O)N2CCC(c3noc(C(F)(F)F)n3)CC2)cnn1-c1nn2cccc2c(=O)[nH]1", 9.00],
  ["CCC1(C#N)CCN(C(=O)c2cn(-c3nn4cccc4c(=O)[nH]3)nn2)CC1", 8.70],
  ["Cc1c(C(=O)N2CCCCC2)cnn1-c1nn2cccc2c(=O)[nH]1", 8.52]
]}

Lookup: Could you share what pIC50 was measured for Cc1cc(=O)[nH]c(-n2ncc(C(=O)NC3CCCC3)c2C)n1 , tested on SNAP-hSPR (sepiapterin reductase, SPR) (Homo sapiens)?
Found: 7.22

###

target: SNAP-hSPR (sepiapterin reductase, SPR) (Homo sapiens)
Could you mark each record criterion met if its IC50 falls strictly under 2 nM, and criterion not met if it equals or exceeds it?

Check out these entries, answers already filled in.
{"columns": ["compound", "class name"],
 "data": [
  ["Cc1c(C(=O)N2CCC(C(F)(F)F)CC2)c(C(N)=O)nn1-c1nc2c(c(=O)[nH]1)CCC2", "criterion met"],
  ["Cc1c(C(=O)N2CCC(S(=O)(=O)N3CCCC3)CC2)cnn1-c1nn2cccc2c(=O)[nH]1", "criterion met"],
  ["COc1ccc2c(c1)CN(C(=O)c1cnn(-c3nc(C)cc(=O)[nH]3)c1C)CC2", "criterion not met"],
  ["Cc1c(C(=O)N2CCC(C(O)(C(F)(F)F)C(F)(F)F)CC2)cnn1-c1nc2c(c(=O)[nH]1)CCC2 [Q-0598]", "criterion not met"]
]}

// switching to the query compound
Lookup: For this compound, is IC50 lower than 2 nM? Cc1c(C(=O)N2CCc3nc(-c4cccc(Cl)c4)sc3C2)cnn1-c1nn2cccc2c(=O)[nH]1
Found: criterion not met

###

target: SNAP-hSPR (sepiapterin reductase, SPR) (Homo sapiens, UniProt P35270)
readout label: IC50
Quote the value and follow it with the unit of measurement.

Example entries begin here.
{"columns": ["molecule", "IC50"],
 "data": [
  ["Cc1c(C(=O)N2CCC(C(F)(F)F)CC2)cnn1-c1cc(C(F)(F)F)cc(=O)[nH]1 [Q-0466]", "1 nM"],
  ["Cc1c(C(=O)N2CCC(C(F)F)CC2)cnn1-c1nn2cccc2c(=O)[nH]1 [Q-0926]", "1 nM"],
  ["Cc1c(C(=O)N2C3CCC2CN(C2CC2)C3)cnn1-c1nn2cccc2c(=O)[nH]1 [Q-1094]", "1 nM"],
  ["Cc1nc(-n2ccc(C(=O)N3CCC(C(F)(F)F)CC3)n2)cc(=O)[nH]1 [Q-0437]", "5000 nM"],
  ["Cc1c(C(=O)N2CC3CC(C2)C3(F)F)cnn1-c1nn2cccc2c(=O)[nH]1 [Q-0799]", "1 nM"]
]}

Lookup: Which measured IC50 belongs to Cc1c(C(=O)N2CCN(CC3CCCO3)CC2)cnn1-c1nn2cccc2c(=O)[nH]1 (stereo not shown) [Q-2016] , tested on SNAP-hSPR (sepiapterin reductase, SPR) (Homo sapiens, UniProt P35270)?
Found: 1 nM

Lookup: What is its IC50 for SNAP-hSPR (sepiapterin reductase, SPR) (Homo sapiens, UniProt P35270)? Entry: Cc1cc(=O)[nH]c(-n2ncc(C(=O)N3CCc4ccc(S(=O)(=O)N5CCOCC5)cc4C3)c2C)n1 [Q-0327]
Found: 7 nM

###

target: SNAP-hSPR (sepiapterin reductase, SPR) (Homo sapiens, UniProt P35270)
Consider the cut-off 2 nM. If the recorded IC50 is strictly smaller, the label is y; if not, the label is n.

Recorded results for 5 compounds are shown here.
{"columns": ["compound", "class name"],
 "data": [
  ["Cc1c(C(=O)N2CCC(c3nc(-c4ccccn4)cs3)CC2)cnn1-c1nc2c(c(=O)[nH]1)CCC2 [Q-1100]", "y"],
  ["Cc1c(C(=O)N2CC3CC(F)(F)C3C2)cnn1-c1nn2cccc2c(=O)[nH]1 (stereo not shown) [Q-0804]", "y"],
  ["Cc1c(C(=O)N2CCN(c3nc(-c4ccccc4C(F)(F)F)cs3)CC2)cnn1-c1nn2cccc2c(=O)[nH]1 [Q-1153]", "n"],
  ["Cc1cc(=O)[nH]c(-n2ncc(C(=O)N3CCc4ccccc4[C@@H]3C)c2C)n1 (single isomer, unassigned) [Q-0339]", "n"],
  ["O=C(c1cn(-c2nn3cccc3c(=O)[nH]2)nn1)N1CCC(C(F)(F)F)CC1 [Q-0781]", "y"]
]}

Lookup: Here's an entry: Cc1c(C(=O)N2CCN(c3nnc(-c4cccc(Cl)c4)o3)CC2)cnn1-c1nn2cccc2c(=O)[nH]1 [Q-1154] . Is its IC50 below 2 nM?
Found: n

Lookup: Item CCCS(=O)(=O)N1CCN(C(=O)c2cnn(-c3nn4cccc4c(=O)[nH]3)c2C)CC1 [Q-1797] : IC50 beneath 2 nM, strictly?
Found: y

Lookup: Say whether its IC50 is strictly beneath 2 nM. Entry: Cc1cc(=O)[nH]c(-n2ncc(C(=O)N3CCc4ccccc4[C@H]3C)c2C)n1 (single isomer, unassigned) [Q-0340]
Found: n

Lookup: Is IC50 strictly under 2 nM for the entry Cc1c(C(=O)N2CCC(n3ccc(C#N)c3)CC2)cnn1-c1nn2cccc2c(=O)[nH]1 [Q-1250] ?
Found: y
